Test system: Fibroblast
experiment_summary: Incucyte cell viability with human fibroblast; note: unitless GR value; below 1 slowed growth and below 0 cell loss
Type: toxicity, cell-based
condition_notes: 6 h, 10 µM, compound concentration 10 uM, replicate number 1
Criterion: Growth Rate strictly under -0.5. Met: y. Not met: n.

Consider the worked cases shown below.
compound=COc1cc(-c2cc3ncccc3c(O[C@H](C)[C@H]3CNC(=O)C3)n2)cc(OC)c1OC.Cl classification=n
compound=COc1cc(CN(CCN)C(=O)N[C@@H](C)c2ccccc2)ccc1OCc1ccccc1.Cl classification=n
compound=c1ccc2c(c1)SCc1c-2[nH]c2ccccc12 classification=y
compound=COc1cc(N2CCN(C)CC2)ccc1Nc1nccc(-c2cn(C)c3cnccc23)n1 classification=y
compound=Cc1ncsc1-c1ccc(CNC(=O)[C@@H]2C[C@@H](O)CN2C(=O)[C@@H](NC(=O)CCCCNC(=O)c2ccc(-c3ccc(N4CCN(C)CC4)c(NC(=O)c4c[nH]c(=O)cc4C(F)(F)F)c3)cc2)C(C)(C)C)cc1 classification=n

stdin: Growth Rate strictly < -0.5 for this compound? Cc1nnc2n1-c1sc3c(c1C(c1ccccc1Cl)=NC2)CC(C(=O)N1CCOCC1)C3 (stereo not drawn) [BEPAFANT]
stdout: n

stdin: Growth Rate strictly < -0.5 for this compound? Cc1c(NC(=O)COc2ccc(Cl)cc2C(=O)c2cc(F)cc(C(F)(F)F)c2)ccc(C(=O)O)c1F [BI 2540]
stdout: n

====

System: Fibroblast
experiment_summary: Incucyte cell viability with human fibroblast; note: unitless GR value; below 1 slowed growth and below 0 cell loss
Assay type: toxicity, cell-based
condition_notes: 0 h, 10 µM, compound concentration 10 uM, replicate number 1
Growth Rate of -0.5 or higher: Met. Under -0.5: Not met.

Consider the worked cases shown below.
compound=COc1ccc(-n2nc(C(F)(F)F)cc2-c2ccc(Cl)cc2)cc1 system=Fibroblast classification="Not met"
compound="CN1C(=O)c2c(nn(Cc3ccc(-c4cccc(F)n4)cc3)c2Nc2ccccc2)N2C1=N[C@@H]1CCC[C@@H]12.O=P(O)(O)O [LENRISPODUN PHOSPHATE]" system=Fibroblast classification="Not met"
compound="CN(C)c1cc2c(Nc3ccc4c(cnn4Cc4ccccc4)c3)ncnc2cn1 [GW282974X]" system=Fibroblast classification="Not met"
compound="CN1C2CCCC1CC(Nc1ccccc1Br)C2 (stereo unspecified)" system=Fibroblast classification=Met
compound="CCOC(=O)C1=C(C)NC(C)=C(C(=O)OC)C1c1cccc([N+](=O)[O-])c1 (stereo unspecified)" system=Fibroblast classification=Met

stdin: Can C[C@]12CC[C@@H]3c4ccc(O)cc4CC[C@H]3[C@@H]1C[C@H]1OC(=O)C[C@]12O be said to have Growth Rate at or above -0.5?
stdout: Not met

====

Can you tell me Growth Rate for the items I'm about to list?
Test system: HEK-293T
experiment_summary: Incucyte cell viability with HEK293T; note: unitless GR value; below 1 slowed growth and below 0 cell loss
Type: toxicity, cell-based
condition_notes: human, 12 h, 10 µM, compound concentration 10 uM, replicate number 1
Answers are plain numbers.

molecule=CN1CCN(c2ccc(-n3cc(-c4ccncc4OCC4CCNCC4)cn3)cc2)CC1 recorded_metric="Growth Rate" quantitative_result=0.02
molecule=COc1cc(C(=O)NCCOCCOCCOCC(=O)N[C@H](C(=O)N2C[C@H](O)C[C@H]2C(=O)NCc2ccc(-c3scnc3C)cc2)C(C)(C)C)ccc1Nc1ncc(C(F)(F)F)c(Oc2cccc3c2C(=O)CC3)n1 recorded_metric="Growth Rate" quantitative_result=-0.01
molecule=CC[C@H](CO)Nc1nc(Nc2cccc(-c3ccccn3)c2)c2ncn(C(C)C)c2n1.Cl.O recorded_metric="Growth Rate" quantitative_result=-0.07
molecule=Cc1ccc(NC(=O)c2ccc3c(c2)OCCO3)cc1NC(=O)c1ccc2nc(OCCN3CCCC3)ccc2c1 recorded_metric="Growth Rate" quantitative_result=-0.78
molecule="CCc1cnn2c(NCc3ccc[n+]([O-])c3)cc(N3CCCCC3CCO)nc12 (stereo not drawn)" recorded_metric="Growth Rate" quantitative_result=-0.26
molecule=CCc1cc2c(cc1N1CCC(N3CCOCC3)CC1)C(C)(C)c1[nH]c3cc(C#N)ccc3c1C2=O recorded_metric="Growth Rate" quantitative_result=0.83
molecule=CN1CCCN(C(=O)c2cccc(-c3ccc(/C=C4/C(=O)Nc5ccc(Cl)cc54)o3)c2)CC1 recorded_metric="Growth Rate" quantitative_result=-0.6
molecule=COc1cc(Cl)c(C(=O)N[C@@H](CN[C@H]2CC[C@@H](N)CC2)Cc2ccc(C#N)cc2)cc1-c1ccc(CN[C@H](C)c2ccc(C)cc2)o1 recorded_metric="Growth Rate" quantitative_result=-0.61
molecule=CC(=O)N1CCN([C@H]2CCC[C@@H](NC(=O)c3cc4c(F)ccc(C)c4[nH]3)C2)CC1.O=C(O)C(F)(F)F recorded_metric="Growth Rate" quantitative_result=0.75
molecule=COCCN1CCN(CCn2ccc(Nc3ncc4c(n3)-c3c(nn(C)c3-c3ccccc3)C[C@H]4C)n2)CC1 recorded_metric="Growth Rate" quantitative_result=-0.36

For each of the items listed, what is its Growth Rate?
1. CC(C)(C)C1CCc2c(sc(NC(=O)c3ccco3)c2C(=O)O)C1 (stereo not drawn)
2. CCN1C(=CC(C)=O)Sc2ccc(OC)cc21
3. CC(C)c1cnn2c(NCc3ccccc3)cc(NCCCCCCN)nc12.Cl
4. CN[C@@H](C)C(=O)N[C@H]1CCCC[C@H]2CC[C@@H](C(=O)N[C@@H](c3ccccc3)c3cn(CCCCc4ccc(CCCCn5cc([C@@H](NC(=O)[C@@H]6CC[C@@H]7CCCC[C@H](NC(=O)[C@H](C)NC)C(=O)N76)c6ccccc6)nn5)cc4)nn3)N2C1=O
5. Cc1nn(C)c(COc2ccc(N3CCN(S(=O)(=O)N(C)C)CC3)cc2)c1-c1cccc2c(CCCOc3cccc4ccccc34)c(C(=O)O)n(CCN3CCOCC3)c12
6. CC(C)(C)NC(=O)c1cncn1C1CCN(c2ccc(-c3nnc(C(F)(F)F)o3)cn2)CC1
7. CC(C)N1CCN(Cc2cnc(-c3cc(-c4cccc5[nH]ccc45)cc4[nH]ncc34)o2)CC1
8. O=c1cccc2n1C[C@@H]1CNC[C@H]2C1

stdout:
1. -0.04
2. 0.47
3. 0.25
4. 0.83
5. 0.93
6. 0.06
7. -0.09
8. 0.46

For each of the items listed, what is its Growth Rate?
1. O=C(Nc1cccc(C(F)(F)F)c1)c1cc(Cl)ccc1O
2. COc1c(C(=O)/C=C/c2ccccc2)c(O)c(OC)c2occc12
3. CS(=O)(=O)NC(=O)CCC/C=C\C[C@H]1C(=O)C[C@@H](O)[C@@H]1/C=C/[C@@H](O)COc1ccccc1
4. CC(=O)N1CCN(c2ccc(OCC3COC(Cn4ccnc4)(c4ccc(Cl)cc4Cl)O3)cc2)CC1 (stereo not drawn)
5. CCN1CCN(Cc2ccc(NC(=O)c3ccc(C)c(Oc4ccnc5[nH]ccc45)c3)cc2C(F)(F)F)CC1.Cl.Cl.Cl.O
6. CCN(C)S(=O)(=O)Nc1cccc(-c2ccc3c(NC(=O)C4CC4)n[nH]c3c2)c1
7. Nc1ncnc2[nH]c(-c3ccccc3)nc12

stdout:
1. -0.85
2. 0.27
3. 0.92
4. 0.05
5. -0.89
6. -0.1
7. 0.87

For each of the items listed, what is its Growth Rate?
1. COc1ccccc1[C@@H]1CNCCC12CCN(C(=O)[C@](OC)(c1ccccc1)C(F)(F)F)CC2
2. O=c1c(Br)ccc2n1C[C@@H]1CNC[C@H]2C1
3. Cc1cc(-c2cc3ncccc3c(OC[C@H]3CCCNC3)n2)ccc1N(C)C.O=C(O)C(F)(F)F

stdout:
1. 0.43
2. 0.4
3. -0.47

====

Test system: U2OS
experiment_summary: Incucyte cell viability with U2OS; note: unitless GR value; below 1 slowed growth and below 0 cell loss
Assay type: toxicity, cell-based
condition_notes: human, 0 h, 10 µM, compound concentration 10 uM, replicate number 2
recorded_metric: Growth Rate
Give bare numbers.

compound=Cn1nc(C(=O)NCc2ccc(C(=O)O)cc2)cc1-c1ccc2[nH]ccc2c1 recorded_metric="Growth Rate" quantitative_result=0.14
compound="CC1=NC(C=C2C(=O)Nc3ccc(F)cc32)=C(C)C1C(=O)NCC(O)CN1CCOCC1 (centres undefined)" recorded_metric="Growth Rate" quantitative_result=-0.99
compound=CS(=O)(=O)NC(=O)CCC/C=C\C[C@H]1C(=O)C[C@@H](O)[C@@H]1/C=C/[C@@H](O)COc1ccccc1 recorded_metric="Growth Rate" quantitative_result=0.8

Attention now turns to another entry.
stdin: Look up and state reported Growth Rate for Cn1c(Nc2c(Cl)cccc2Cl)nc2ccc3nc[nH]c(=O)c3c21
stdout: 0.87

====

System: Fibroblast
experiment_summary: Incucyte cell viability with human fibroblast; note: unitless GR value; below 1 slowed growth and below 0 cell loss
Format: toxicity, cell-based
condition_notes: 12 h, 10 µM, compound concentration 10 uM, replicate number 2
Can you tell me Growth Rate for the items I'm about to list?
Answers are plain numbers.

Some molecules with recorded Growth Rate:
substance_smiles=C[C@@H](CO)CCC[C@@H](C)[C@H]1CC[C@H]2[C@@H]3CC=C4C[C@@H](O)CC[C@]4(C)[C@H]3CC[C@]12C system=Fibroblast quantitative_result=0.22
substance_smiles=O=C1CCCN1CCNc1nc(Nc2ccc(Cl)c(Cl)c2)ncc1C(F)(F)F system=Fibroblast quantitative_result=0.41
substance_smiles=CCn1ccc(Nc2ncc3c(n2)-c2c(nn(C)c2-c2ccc(-c4cnn(C)c4)cc2Cl)CC3)n1 system=Fibroblast quantitative_result=0.65

stdin: Look up and state reported Growth Rate for COc1c(C(=O)/C=C/c2ccccc2)c(O)c(OC)c2occc12
stdout: 0.35
